Test system: α7 integrin (LacZ reporter in α7+/LacZ myotubes)
protocol-summary: Myotube α7 integrin FDG assay (Burkin assay in myotubes, 96-well)
Assay type: cell-based, mouse
condition-summary: 0.5 uM, myotubes
Burkin Assay in Myotubes (signal relative to DMSO): recorded values
quantity-measured: Burkin Assay in Myotubes (signal relative to DMSO)

[
  {
    "molecule": "COC(=O)C(=O)C/C(=N/Nc1ncnc2ccccc12)c1ccc(Cl)cc1",
    "quantitative-readout": 1.135
  },
  {
    "molecule": "O=C(NC1CCCC1)c1ccc(CS(=O)(=O)Cc2ccccc2F)o1",
    "quantitative-readout": 1.047
  },
  {
    "molecule": "Cc1ccc(NC(=O)NCc2nc3ccccc3n2C)cc1",
    "quantitative-readout": 0.9685
  },
  {
    "molecule": "Cc1ccc(NC(=O)CC2COc3ccccc3O2)cc1 (stereo not shown)",
    "quantitative-readout": 1.026
  }
]

====

Tested on: α7 integrin (LacZ reporter in α7LacZ+/− myoblasts)
protocol-summary: qHTS of the LOPAC library and MLSMR (online screen, α7LacZ+/− myoblasts)
condition-summary: Mus musculus, Myoblast, read-out: Fit LogAC50 (converted)
Please assign -1 whenever EC50 is at or above 10 µM, and 1 whenever it is below.

[
  {
    "compound": "Oc1c(Br)cc(Br)cc1CNc1cccc2cccnc12",
    "class-label": -1
  },
  {
    "compound": "COc1ccccc1CNS(=O)(=O)c1ccc(Cl)s1",
    "class-label": 1
  },
  {
    "compound": "CCNC(=O)CSc1nc(-c2ccc(F)cc2)cs1",
    "class-label": 1
  },
  {
    "compound": "COc1cc(CNCc2ccc(C(=O)O)cc2)ccc1OCc1ccc(F)cc1",
    "class-label": 1
  },
  {
    "compound": "CCOC(=O)C1=C(NC(=O)c2ccc(OC)c(S(=O)(=O)N3CCCCC3C)c2)Nc2ccccc2N=C1CC (stereo not shown)",
    "class-label": -1
  },
  {
    "compound": "Cc1nn(C(C)(C)C)c(C)c1/C=N/OC(=O)Nc1ccc(Cl)c(Cl)c1",
    "class-label": 1
  },
  {
    "compound": "O=C(O)CCn1cc(/C=C2/NC(=S)N(c3ccccc3)C2=O)c(-c2ccccc2)n1",
    "class-label": -1
  },
  {
    "compound": "CS(=O)(=O)c1ccc(Cl)c(NC(=O)CSc2nncn2-c2ccccc2)c1",
    "class-label": -1
  },
  {
    "compound": "CCOC(=O)Cc1csc(NC(=S)NC(=O)c2cc(OC)c(OC)c(OC)c2)n1",
    "class-label": 1
  },
  {
    "compound": "O=C(O)c1cc(/N=C/c2c(O)oc3ccccc3c2=O)ccc1O",
    "class-label": 1
  },
  {
    "compound": "C/C(CC(=O)Nc1ccc(Cl)c(C(F)(F)F)c1)=N\\NC(=O)c1cnccn1",
    "class-label": 1
  },
  {
    "compound": "COCc1c(C(=O)OCc2nc(=O)c3sccc3[nH]2)oc2ccccc12",
    "class-label": 1
  },
  {
    "compound": "CN(C)/C=N/c1nccc(-c2cccs2)n1",
    "class-label": 1
  }
]

====

CMV-LACZ in Myotubes, signal relative to DMSO: recorded values
Test system: β-galactosidase in CMV-LacZ C2C12 myotubes
protocol-summary: CMV-LacZ secondary screen in C2C12 myotubes (β-Gal stabilizing assay)
Assay type: cell-based, mouse
condition-summary: 10 uM; C2C12 CMV-LacZ myotubes; fold relative to DMSO
quantity-measured: CMV-LACZ in Myotubes, signal relative to DMSO

[
  {
    "compound": "O=C(Nc1ccc(Oc2cccnc2)cc1)c1ccccc1Cl",
    "result": 0.9364
  },
  {
    "compound": "CCC(C)n1[nH]c(=O)cc1N (centres unmarked)",
    "result": 1.1088
  },
  {
    "compound": "Cc1ccc(C(=O)C(C)OC(=O)CNC(=O)c2ccc(Br)o2)cc1 (centres unmarked)",
    "result": 0.9009
  },
  {
    "compound": "Cc1cc(C(=O)Nc2cccc3ccccc23)c(C)o1",
    "result": 0.8631
  },
  {
    "compound": "OC(c1nc2ccc(F)cc2[nH]1)C(O)c1nc2ccc(F)cc2[nH]1 (centres unmarked)",
    "result": 0.8690
  },
  {
    "compound": "COc1ccc(NC(=O)C2(N(C(=O)Cn3nnnc3N)c3ccc(OC)cc3)CCCCC2)cc1",
    "result": 1.1128
  },
  {
    "compound": "CC(=O)Nc1ccc(N(C(=O)c2cnccn2)C(C(=O)NC2CCCCC2)c2ccc(F)cc2)cc1 (centres unmarked)",
    "result": 0.994
  },
  {
    "compound": "C#CC1(O)CCC2C3CCC4=C/C(=N/OCC(=O)NCC(=O)NC(C(=O)O)C(C)C)CC[C@]4(C)C3CC[C@@]21C (some centres unmarked)",
    "result": 1.1727
  }
]

====

Tested on: β-galactosidase in CMV-LacZ C2C12 myotubes
protocol-summary: CMV-LacZ secondary screen in C2C12 myotubes (β-Gal stabilizing assay)
Type: cell-based, mouse
condition-summary: 10 uM; C2C12 CMV-LacZ myotubes; fold relative to DMSO
Source text: In order to determine compounds that acted to stabilize β-gal in myogenic cells, a CMV-LacZ C2C12 cell line was used in a secondary screen. The EGFP gene from the pEGFP (Clontech) vector was replaced by LACZ PCR product with digests of the vector/PCR product performed using EcoRI (NEB) and NotI (NEB) and ligated using T4 DNA Ligase (NEB) following standard procedures to produce the CMV-LACZ vector. […]
quantity-measured: CMV-LACZ in Myotubes, signal relative to DMSO

[
  {
    "compound": "CC1(C)CC(=O)C=C(Nc2ccc(C(=O)O)c(O)c2)C1 [MLS001198693-01]",
    "quantitative-readout": 0.9258
  },
  {
    "compound": "O=C(N/N=C/c1cn[nH]c1-c1ccc(F)cc1)c1ccncc1 [MLS000698686-01]",
    "quantitative-readout": 0.9727
  },
  {
    "compound": "CCn1c(=O)c2cc(C(=O)N(C)c3cc(C)ccc3OC)sc2c2ccccc21 [MLS000731285-01]",
    "quantitative-readout": 1.3012
  },
  {
    "compound": "CC1(C)Cc2ccccc2-c2nc3n(c(=O)c21)CCS3 [MLS000711491-01]",
    "quantitative-readout": 0.8645
  },
  {
    "compound": "COc1ccc2oc(C[S+]([O-])c3ccccc3)c(C(=O)O)c2c1 (stereo not drawn) [MLS001208858-01]",
    "quantitative-readout": 0.8018
  },
  {
    "compound": "Cc1ccc(NS(=O)(=O)c2ccc(-c3ccc(=O)[nH]n3)o2)c(C)c1 [MLS001116535-01]",
    "quantitative-readout": 1.2856
  },
  {
    "compound": "COCCSc1ccccc1C(=O)Nc1cc(C)cc(C)c1 [MLS000675441-01]",
    "quantitative-readout": 1.0337
  },
  {
    "compound": "COC(=O)c1ccc(C2C(C(=O)c3cc4ccccc4o3)=C(O)C(=O)N2CCN2CCOCC2)cc1 (stereo not drawn) [MLS001146463-01]",
    "quantitative-readout": 0.9392
  },
  {
    "compound": "CCOCCCN1C(=O)CN(C2CCCCCC2)C(=O)C1c1ccc(OC)cc1 (stereo not drawn) [MLS000046123-01]",
    "quantitative-readout": 1.084
  }
]

====

Test system: β-galactosidase in CMV-LacZ C2C12 myoblasts
protocol-summary: CMV-LacZ secondary screen in C2C12 myoblasts (β-Gal stabilizing assay)
Type: cell-based, mouse
condition-summary: 0.5 uM; CMV-LacZ C2C12 myoblasts
quantity-measured: CMV-LACZ in Myoblasts (β-galactosidase activity relative to DMSO)

[
  {
    "molecule": "Cc1ccc(NS(=O)(=O)c2ccc(-c3ccc(=O)[nH]n3)o2)c(C)c1 [MLS001116535-01]",
    "quantitative-readout": 1.0167
  },
  {
    "molecule": "Cc1ccccc1S(=O)(=O)N1C[C@H]2CON(C)[C@H]2C[C@H]1c1cccc(-c2ccccc2)c1 [MLS002694363-01]",
    "quantitative-readout": 1.1110
  },
  {
    "molecule": "O=C(Cn1nc(-c2ccc(Cl)cc2)ccc1=O)N1CCC2(CC1)OCCO2 [MLS000689492-01]",
    "quantitative-readout": 0.9363
  },
  {
    "molecule": "O=C1Nc2ccccc2/C1=C/c1ccccc1F [MLS001202389-01]",
    "quantitative-readout": 1.0237
  },
  {
    "molecule": "Cc1ccc(N2C(=O)C3NN=C(C(=O)OCc4ccccc4)C3C2=O)cc1 (stereo not shown) [MLS000588210-01]",
    "quantitative-readout": 1.2908
  },
  {
    "molecule": "O=C(CCc1ccccc1)c1nnc(-c2ccccc2)o1 [MLS001004364-01]",
    "quantitative-readout": 0.9117
  },
  {
    "molecule": "Cc1[nH]c(=O)[nH]c(=O)c1S(=O)(=O)Nc1ccc(F)cc1Cl [MLS001200149-01]",
    "quantitative-readout": 1.1234
  },
  {
    "molecule": "N#Cc1nc(COc2ccccc2)oc1N1CCCC1 [MLS000036988-01]",
    "quantitative-readout": 1.0767
  },
  {
    "molecule": "CCOC(=O)c1nnn(-c2nonc2OC)c1-c1ccccc1 [MLS000045588-01]",
    "quantitative-readout": 0.7647
  },
  {
    "molecule": "CC1CC(C)(C)NC(=S)N1CC(=O)N(C)Cc1ccccc1 (stereo not shown) [MLS000586245-01]",
    "quantitative-readout": 0.9034
  },
  {
    "molecule": "COc1cccc(C(=O)COc2ccc3ccc(=O)oc3c2)c1 [MLS000677675-01]",
    "quantitative-readout": 1.0343
  },
  {
    "molecule": "Cc1cc(OCC(=O)NC(C)C)ccc1Cl [MLS000684034-01]",
    "quantitative-readout": 1.2525
  },
  {
    "molecule": "Cc1cc(C)cc(OCC(=O)N/N=C/c2ccccn2)c1 [MLS000710669-01]",
    "quantitative-readout": 1.0969
  },
  {
    "molecule": "CC(NC(=O)c1ccc(C(C)(C)C)cc1)C(c1cccs1)N1CCOCC1 (stereo not shown) [MLS001167281-01]",
    "quantitative-readout": 1.0114
  },
  {
    "molecule": "Cc1nnc(SCC(=O)c2ccc(Br)cc2)s1 [MLS000420298-01]",
    "quantitative-readout": 1.2808
  },
  {
    "molecule": "NS(=O)(=O)c1ccc(NC(=O)CN2CCc3ccccc32)cc1 [MLS000850522-01]",
    "quantitative-readout": 0.8880
  },
  {
    "molecule": "O=C(Nc1ccccc1Cl)C1CCCN1C(=O)OCc1ccccc1 (stereo not shown) [MLS001030621-01]",
    "quantitative-readout": 0.7081
  },
  {
    "molecule": "Cc1ccccc1NC(=O)NCCCN1CCN(C)CC1 [MLS001197665-01]",
    "quantitative-readout": 0.8584
  },
  {
    "molecule": "O=C(N/N=C/c1c[nH]c2ccccc12)c1cc(Cl)ccc1O [MLS001196572-01]",
    "quantitative-readout": 1.0105
  }
]

Sourced from patent US9980943B2
